Recorded Kd values for a group of binders are listed next.
Target: T1, recombinant FAP protein (BioLegend), biotinylated (Homo sapiens (Human), UniProt Q12884 26-760, Biotinylated (sites not given) for loading on streptavidin sensors. Any vendor tag is not stated in the passages shown.)
T1 construct: Loaded on streptavidin sensors for BLI; also called biotinylated FAP
T1 sequence: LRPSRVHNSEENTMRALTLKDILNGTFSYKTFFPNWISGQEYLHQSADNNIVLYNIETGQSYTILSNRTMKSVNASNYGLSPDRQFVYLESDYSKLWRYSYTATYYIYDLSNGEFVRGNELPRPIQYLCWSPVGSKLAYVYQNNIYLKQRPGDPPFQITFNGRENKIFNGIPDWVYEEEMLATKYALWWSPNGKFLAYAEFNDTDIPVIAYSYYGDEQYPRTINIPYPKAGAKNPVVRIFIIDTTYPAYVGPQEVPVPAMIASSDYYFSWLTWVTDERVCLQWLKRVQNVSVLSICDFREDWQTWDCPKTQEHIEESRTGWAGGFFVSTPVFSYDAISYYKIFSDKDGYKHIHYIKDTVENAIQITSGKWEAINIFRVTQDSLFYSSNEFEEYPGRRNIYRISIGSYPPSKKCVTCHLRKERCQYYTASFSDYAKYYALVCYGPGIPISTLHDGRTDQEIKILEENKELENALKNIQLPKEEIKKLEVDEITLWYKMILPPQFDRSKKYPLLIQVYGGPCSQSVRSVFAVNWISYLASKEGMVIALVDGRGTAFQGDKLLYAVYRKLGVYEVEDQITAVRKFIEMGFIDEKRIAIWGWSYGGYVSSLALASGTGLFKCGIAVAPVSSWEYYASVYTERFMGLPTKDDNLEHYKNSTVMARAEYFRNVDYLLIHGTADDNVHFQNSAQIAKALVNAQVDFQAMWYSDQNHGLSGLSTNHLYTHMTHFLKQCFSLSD
Assay: BLI (Octet RED96), biotinylated FAP on streptavidin sensors
Respond with the bare value in nM.

[
  {
    "binder": "P-1917: 2PE14_N32R (VHH, also called pET28 PelB-2PE14_N32R) VHH: QVQLQESGGGLVQPGGSLRLSCAASGSTFSIRAVAWYRQAPGKRRELVAGISGGGVTNYPDSVKGRFTISRDNAKNTVYLQMSSLKPEDTAVYYCNLWPPRASPGGRVYWGQGTQVTVSS",
    "Kd, nM": 0.317
  }
]

Please find the next binder below.
get_value(item= P-1920: 2PE14_N32V (VHH, also called pET28 PelB-2PE14_N32V) VHH: QVQLQESGGGLVQPGGSLRLSCAASGSTFSIVAVAWYRQAPGKRRELVAGISGGGVTNYPDSVKGRFTISRDNAKNTVYLQMSSLKPEDTAVYYCNLWPPRASPGGRVYWGQGTQVTVSS , readout=Kd) returns 100
